- tested system: Replicase polyprotein 1a (Severe acute respiratory syndrome-related coronavirus)
Field 'label' (enum: t / f). Set to t when Ki is strictly under 10 µM; else f.

molecule="COC(=O)[C@@]1(C)CCCc2c1ccc1c2C(=O)C(=O)c2c(C)coc2-1 [METHYL TANSHINONATE]" label=t
molecule="Cc1cccc2c3c(ccc12)C1=C(C(=O)C3=O)[C@@H](C)CO1 [DIHYDROTANSHINONE I]" label=f
molecule=C[C@H]1COC2=C1C(=O)C(=O)c1c2ccc2c1CCCC2(C)C label=t
molecule="Cc1coc2c1C(=O)C(=O)c1c-2ccc2c1CCCC2(C)CO (configuration not stated)" label=f
molecule=CC(C)C1=Cc2ccc3c(c2C(=O)C1=O)CCCC3(C)C label=f
molecule=Cc1coc2c1C(=O)C(=O)c1c-2ccc2c1CCCC2(C)C label=f
molecule=Cc1coc2c1C(=O)C(=O)c1c-2ccc2c(C)cccc12 label=f

---

- tested system: UniProt P0C6U8
- measurement conditions: 1 to 100 uM
The source made the active and inactive calls. No cut-off for these calls is given here.
metric: inhibition

compound="Cc1coc2c1C(=O)C(=O)c1c-2ccc2c1CCCC2(C)C [TANSHINONE IIA]" reported_value=inactive
compound="COC(=O)[C@@]1(C)CCCc2c1ccc1c2C(=O)C(=O)c2c(C)coc2-1 [METHYL TANSHINONATE]" reported_value=inactive
compound="Cc1cccc2c3c(ccc12)C1=C(C(=O)C3=O)[C@@H](C)CO1 [DIHYDROTANSHINONE I]" reported_value=inactive
compound="CC(C)C1=Cc2ccc3c(c2C(=O)C1=O)CCCC3(C)C [MILTIRONE]" reported_value=inactive
compound="Cc1coc2c1C(=O)C(=O)c1c-2ccc2c1CCCC2(C)CO (stereo unspecified) [TANSHINONE IIB]" reported_value=inactive
compound="Cc1coc2c1C(=O)C(=O)c1c-2ccc2c(C)cccc12 [TANSHINONE I]" reported_value=inactive

---

Target or system Protease (Human immunodeficiency virus 1): recorded IC50 listed per item.
metric: IC50 (µM)

compound="Cc1coc2c1C(=O)C(=O)c1c-2ccc2c(C)cccc12 [TANSHINONE I]" tested_system="Protease (Human immunodeficiency virus 1)" unit_annotation=µM reported_value=45.9
compound="CC(C)C1=Cc2ccc3c(c2C(=O)C1=O)CCCC3(C)C [MILTIRONE]" tested_system="Protease (Human immunodeficiency virus 1)" unit_annotation=µM reported_value=148
compound="Cc1coc2c1C(=O)C(=O)c1c-2ccc2c1CCCC2(C)C [TANSHINONE IIA]" tested_system="Protease (Human immunodeficiency virus 1)" unit_annotation=µM reported_value=59.2
compound="COC(=O)[C@@]1(C)CCCc2c1ccc1c2C(=O)C(=O)c2c(C)coc2-1 [METHYL TANSHINONATE]" tested_system="Protease (Human immunodeficiency virus 1)" unit_annotation=µM reported_value=103
compound="Cc1cccc2c3c(ccc12)C1=C(C(=O)C3=O)[C@@H](C)CO1 [DIHYDROTANSHINONE I]" tested_system="Protease (Human immunodeficiency virus 1)" unit_annotation=µM reported_value=50.6
compound="C[C@H]1COC2=C1C(=O)C(=O)c1c2ccc2c1CCCC2(C)C [CRYPTOTANSHINONE]" tested_system="Protease (Human immunodeficiency virus 1)" unit_annotation=µM reported_value=69.6

---

- tested system: Replicase polyprotein 1a (Severe acute respiratory syndrome-related coronavirus) (UniProt P0C6U8)
- measurement conditions: TDE = time-dependent effect
metric: inhibition

compound=C[C@H]1COC2=C1C(=O)C(=O)c1c2ccc2c1CCCC2(C)C reported_value=tde
compound="Cc1cccc2c3c(ccc12)C1=C(C(=O)C3=O)[C@@H](C)CO1 [DIHYDROTANSHINONE I]" reported_value=tde
compound="Cc1coc2c1C(=O)C(=O)c1c-2ccc2c1CCCC2(C)CO (configuration not stated)" reported_value=tde
compound=Cc1coc2c1C(=O)C(=O)c1c-2ccc2c1CCCC2(C)C reported_value=tde
compound=CC(C)C1=Cc2ccc3c(c2C(=O)C1=O)CCCC3(C)C reported_value=tde
compound="COC(=O)[C@@]1(C)CCCc2c1ccc1c2C(=O)C(=O)c2c(C)coc2-1 [METHYL TANSHINONATE]" reported_value=tde
compound=Cc1coc2c1C(=O)C(=O)c1c-2ccc2c(C)cccc12 reported_value=tde

---

Recorded measurements of IC50, one per entry
- tested system: Replicase polyprotein 1a (Severe acute respiratory syndrome-related coronavirus, UniProt P0C6U8)
metric: IC50 (µM)

molecule="COC(=O)[C@@]1(C)CCCc2c1ccc1c2C(=O)C(=O)c2c(C)coc2-1 [METHYL TANSHINONATE]" unit_annotation=µM reported_value=10.6
molecule="C[C@H]1COC2=C1C(=O)C(=O)c1c2ccc2c1CCCC2(C)C [CRYPTOTANSHINONE]" unit_annotation=µM reported_value=10.1
molecule="Cc1coc2c1C(=O)C(=O)c1c-2ccc2c1CCCC2(C)CO (configuration not stated) [TANSHINONE IIB]" unit_annotation=µM reported_value=18
molecule="Cc1coc2c1C(=O)C(=O)c1c-2ccc2c(C)cccc12 [TANSHINONE I]" unit_annotation=µM reported_value=11.5
molecule="CC(C)C1=Cc2ccc3c(c2C(=O)C1=O)CCCC3(C)C [MILTIRONE]" unit_annotation=µM reported_value=78.9
molecule="Cc1coc2c1C(=O)C(=O)c1c-2ccc2c1CCCC2(C)C [TANSHINONE IIA]" unit_annotation=µM reported_value=17.1
molecule="Cc1cccc2c3c(ccc12)C1=C(C(=O)C3=O)[C@@H](C)CO1 [DIHYDROTANSHINONE I]" unit_annotation=µM reported_value=10.7

---

Recorded measurements of pIC50, one per entry
- tested system: UniProtKB P0C6U8
pIC50: −log10 of the molar value.
metric: pIC50

compound="Cc1coc2c1C(=O)C(=O)c1c-2ccc2c1CCCC2(C)C [TANSHINONE IIA]" reported_value=4.05
compound="C[C@H]1COC2=C1C(=O)C(=O)c1c2ccc2c1CCCC2(C)C [CRYPTOTANSHINONE]" reported_value=3.64
compound="CC(C)C1=Cc2ccc3c(c2C(=O)C1=O)CCCC3(C)C [MILTIRONE]" reported_value=4.68
compound="COC(=O)[C@@]1(C)CCCc2c1ccc1c2C(=O)C(=O)c2c(C)coc2-1 [METHYL TANSHINONATE]" reported_value=4.68
compound="Cc1cccc2c3c(ccc12)C1=C(C(=O)C3=O)[C@@H](C)CO1 [DIHYDROTANSHINONE I]" reported_value=4.84
compound="Cc1coc2c1C(=O)C(=O)c1c-2ccc2c(C)cccc12 [TANSHINONE I]" reported_value=4.41
compound="Cc1coc2c1C(=O)C(=O)c1c-2ccc2c1CCCC2(C)CO (configuration not stated) [TANSHINONE IIB]" reported_value=4.61

---

- tested system: Replicase polyprotein 1a (Severe acute respiratory syndrome-related coronavirus, UniProt P0C6U8)
pIC50: −log10 of the molar value.
metric: pIC50

compound="Cc1coc2c1C(=O)C(=O)c1c-2ccc2c(C)cccc12 [TANSHINONE I]" reported_value=5.06
compound="Cc1coc2c1C(=O)C(=O)c1c-2ccc2c1CCCC2(C)CO (configuration not stated) [TANSHINONE IIB]" reported_value=4.97
compound="Cc1cccc2c3c(ccc12)C1=C(C(=O)C3=O)[C@@H](C)CO1 [DIHYDROTANSHINONE I]" reported_value=5.31
compound="C[C@H]1COC2=C1C(=O)C(=O)c1c2ccc2c1CCCC2(C)C [CRYPTOTANSHINONE]" reported_value=6.10
compound="COC(=O)[C@@]1(C)CCCc2c1ccc1c2C(=O)C(=O)c2c(C)coc2-1 [METHYL TANSHINONATE]" reported_value=5.04
compound="Cc1coc2c1C(=O)C(=O)c1c-2ccc2c1CCCC2(C)C [TANSHINONE IIA]" reported_value=5.80
compound="CC(C)C1=Cc2ccc3c(c2C(=O)C1=O)CCCC3(C)C [MILTIRONE]" reported_value=4.52

---

- test method notes: Inhibition of chymotrypsin using N-benzoyl-L-tyrosine ethyl ester as substrate assessed as benzoyl-tyrosine production measured every 10 seconds for 6 mins
Recorded measurements of IC50, one per entry
metric: IC50 (µM)

molecule=C[C@H]1COC2=C1C(=O)C(=O)c1c2ccc2c1CCCC2(C)C metric=IC50 unit_annotation=µM reported_value=120
molecule="COC(=O)[C@@]1(C)CCCc2c1ccc1c2C(=O)C(=O)c2c(C)coc2-1 [METHYL TANSHINONATE]" metric=IC50 unit_annotation=µM reported_value=124
molecule=Cc1coc2c1C(=O)C(=O)c1c-2ccc2c1CCCC2(C)C metric=IC50 unit_annotation=µM reported_value=68.3
molecule=Cc1coc2c1C(=O)C(=O)c1c-2ccc2c(C)cccc12 metric=IC50 unit_annotation=µM reported_value=103
molecule=CC(C)C1=Cc2ccc3c(c2C(=O)C1=O)CCCC3(C)C metric=IC50 unit_annotation=µM reported_value=139
